B1: LINE1-full (parent)
chain: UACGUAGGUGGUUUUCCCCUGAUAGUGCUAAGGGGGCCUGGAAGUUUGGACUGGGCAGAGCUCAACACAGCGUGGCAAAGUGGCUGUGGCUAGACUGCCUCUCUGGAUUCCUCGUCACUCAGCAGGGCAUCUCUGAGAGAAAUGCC

Variants of: B1
Assay method text: self-cleavage, relative activity (ratio to wild type); higher = more cleavage; in vitro, sequencing; the parent is a self-cleaving ribozyme
Where self-cleavage equals or exceeds 1, the correct label is true; where it does not, the label is false.

Reference set, count: 7
Form field: self-cleavage at least 1? Entry: U87A A138U
false

Here is the next variant: U5A A121G
false

Record: A42G C133A
true

Check U5A U100A too.
false

Now give it for U12C G33U too.
true

Param item: A107G U119C
true

Also need G10A C133U , thanks.
true

Would you kindly look at the next entry?
Can A22C U46A be said to have self-cleavage at or above 1?
true

From: the RNAGym collection of RNA variant scans (doi:10.7554/elife.90254)
